The reported measurements were obtained from the supplement of paper PMC11208160.

assay_method_text: recombinant barcode read abundance after kanamycin selection (control-corrected) (log10(CPM+1)); higher = more efficient recombination; sequences stand for … in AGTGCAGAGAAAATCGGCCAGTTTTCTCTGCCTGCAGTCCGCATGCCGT…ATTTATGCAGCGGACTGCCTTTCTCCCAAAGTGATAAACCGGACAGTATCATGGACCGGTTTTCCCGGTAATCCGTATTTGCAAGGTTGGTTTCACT; site = the 11-nt target
Assignment: determine reported recombinant barcode read abundance (log10) for the given sequences.

Problem: Find the recorded recombinant barcode read abundance (log10) belonging to GGACACCTGTGGGTTCTAACCTGTTGCCTCA [GGACACCCTAG_LTGcore_TG_RTGcore_TG] (site GGACACCCTAG) (LTG core: TG, RTG core: TG) and report it.
Solution: 0.15

Problem: Find the recorded recombinant barcode read abundance (log10) belonging to GGGCGTGCTTGGGTTCTAACCTGTTGCCTCC [GGGCGTGCTAG_LTGcore_CT_RTGcore_GG] (site GGGCGTGCTAG) (LTG core: CT, RTG core: GG) and report it.
Solution: 1.53

Problem: Find the recorded recombinant barcode read abundance (log10) belonging to GAGCCCACTTGGGTTCTAACCTGTTGCCTCA [GAGCCCACTAG_LTGcore_CT_RTGcore_TG] (site GAGCCCACTAG) (LTG core: CT, RTG core: TG) and report it.
Solution: 0.593
